- Test system: MCF-7
- method-description: cells
- test-conditions: Homo sapiens, MCF7, 24 h, read-out: In vitro cytotoxicity IC50 (mean ± SD) MCF-7
pIC50: −log10 of the molar value.
experimental-readout: pIC50

• Nc1cc(N2C(=O)c3ccccc3C2=O)nc(SCC(=O)NN=Cc2ccc(Cl)cc2)n1 = 4.42
• CCNC(c1ccccc1)c1c(N)[nH]c(=O)[nH]c1=O (stereo not shown) [10b] = 4.50
• CN(C)C(c1ccccc1)c1c(N)[nH]c(=O)[nH]c1=O (stereo not shown) [10d] = 5.07
• CNC(c1ccccc1)c1c(N)[nH]c(=O)[nH]c1=O (stereo not shown) [10a] = 5.07
• O=C1CCC(N2C(=O)c3ccccc3C2=O)C(=O)N1 (stereo not shown) [Thalidomide, reference compound] = 4.87
• Nc1cc(N2C(=O)c3ccccc3C2=O)nc(SCC(=O)NN=Cc2ccc(O)cc2)n1 = 4.12
• Nc1cc(N2C(=O)c3ccccc3C2=O)nc(SCC(=O)NN=Cc2cccc([N+](=O)[O-])c2)n1 = 4.21
• COc1ccc(C=NNC(=O)CSc2nc(N)cc(N3C(=O)c4ccccc4C3=O)n2)cc1OC = 4.71
• CCCCNC(c1ccccc1)c1c(N)[nH]c(=O)[nH]c1=O (stereo not shown) [10c] = 5.12
• Nc1cc(N2C(=O)c3ccccc3C2=O)nc(SCC(=O)NN=Cc2ccc([N+](=O)[O-])cc2)n1 = 4.32

---

- assay-target: EGFR TK enzyme (Homo sapiens, UniProt P00533)
- Sequence (P00533 25-1210): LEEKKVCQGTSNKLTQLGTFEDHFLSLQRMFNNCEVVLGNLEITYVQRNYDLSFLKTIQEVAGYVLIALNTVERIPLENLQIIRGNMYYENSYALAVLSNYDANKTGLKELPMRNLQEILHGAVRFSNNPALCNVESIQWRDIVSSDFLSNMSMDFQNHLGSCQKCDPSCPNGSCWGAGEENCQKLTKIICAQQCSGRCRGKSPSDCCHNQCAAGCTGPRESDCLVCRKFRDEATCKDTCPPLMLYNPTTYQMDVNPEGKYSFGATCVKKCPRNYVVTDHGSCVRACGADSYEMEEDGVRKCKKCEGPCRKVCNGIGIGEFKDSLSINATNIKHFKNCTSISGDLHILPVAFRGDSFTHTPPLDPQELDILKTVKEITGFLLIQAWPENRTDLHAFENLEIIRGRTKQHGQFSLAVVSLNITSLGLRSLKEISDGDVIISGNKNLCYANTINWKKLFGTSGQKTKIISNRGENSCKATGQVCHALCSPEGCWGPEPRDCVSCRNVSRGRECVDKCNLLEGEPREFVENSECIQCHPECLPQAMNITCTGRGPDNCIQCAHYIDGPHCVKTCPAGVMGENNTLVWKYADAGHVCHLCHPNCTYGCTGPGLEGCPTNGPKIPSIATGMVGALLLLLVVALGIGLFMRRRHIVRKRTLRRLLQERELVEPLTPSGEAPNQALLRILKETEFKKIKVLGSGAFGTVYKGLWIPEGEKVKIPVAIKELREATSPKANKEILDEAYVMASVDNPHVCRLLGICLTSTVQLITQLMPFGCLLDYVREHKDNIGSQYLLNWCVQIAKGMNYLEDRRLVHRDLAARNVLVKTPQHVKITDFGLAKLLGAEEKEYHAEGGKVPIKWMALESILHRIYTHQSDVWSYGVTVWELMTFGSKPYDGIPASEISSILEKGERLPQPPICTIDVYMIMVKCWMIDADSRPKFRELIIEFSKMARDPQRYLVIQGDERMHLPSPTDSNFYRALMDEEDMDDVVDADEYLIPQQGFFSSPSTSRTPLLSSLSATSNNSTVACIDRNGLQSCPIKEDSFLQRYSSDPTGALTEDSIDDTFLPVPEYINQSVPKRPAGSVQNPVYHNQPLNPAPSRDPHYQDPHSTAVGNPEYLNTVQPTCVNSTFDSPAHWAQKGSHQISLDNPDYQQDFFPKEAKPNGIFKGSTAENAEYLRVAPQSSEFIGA
Form field: IC50 (one value per entry).
experimental-readout: IC50 (µM)

* CCNC(c1ccccc1)c1c(N)[nH]c(=O)[nH]c1=O (stereo not drawn) [10b] | 0.65
* CNC(c1ccccc1)c1c(N)[nH]c(=O)[nH]c1=O (stereo not drawn) [10a] | 4.6
* CCCCNC(c1ccccc1)c1c(N)[nH]c(=O)[nH]c1=O (stereo not drawn) [10c] | 0.99

---

- Tested on: MCF-7
- test-conditions: human
Form field: IC50 (one value per entry).
experimental-readout: IC50 (µM)

• CN(C)C(c1ccccc1)c1c(N)[nH]c(=O)[nH]c1=O (stereo not drawn) [10d] = 14.2
• CCNC(c1ccccc1)c1c(N)[nH]c(=O)[nH]c1=O (stereo not drawn) [10b] = 37.7
• Nc1cc(N2C(=O)c3ccccc3C2=O)nc(SCC(=O)NN=Cc2ccc(Cl)cc2)n1 = 31.8
